system: Plasmopara viticola; assay: Test G: curative control of grape downy mildew on grape seedlings (sprayed after inoculation); assay type: in vivo; conditions: sprayed day after inoculation, rate not given
measured_attribute: Test G disease control rating
Lab note: write values as number then unit, every time.

Incoming: So what does the record say about Test G disease control rating for Cc1ccnc(Br)c1C(=O)NC(C)c1ncc(Br)cc1Cl (stereo not shown) ?
Outgoing: 94%

Incoming: So what does the record say about Test G disease control rating for CC(NC(=O)c1c(Cl)ccnc1Cl)c1ncc(Cl)cc1Cl (racemic) ?
Outgoing: 100%

Incoming: So what does the record say about Test G disease control rating for Cc1cc(Cl)c(C(=O)NC(C)c2ncc(Cl)cc2Cl)c(Cl)n1 (stereo not shown) ?
Outgoing: 100%

Incoming: So what does the record say about Test G disease control rating for O=C(NCc1ncc(I)cc1Cl)c1c(Cl)ccnc1Cl ?
Outgoing: 63%

Incoming: So what does the record say about Test G disease control rating for CC(NC(=O)c1c(Cl)ccnc1Cl)c1ncc(Cl)cc1Br (stereo not shown) ?
Outgoing: 100%

Incoming: So what does the record say about Test G disease control rating for Cc1cc(Cl)c(C(=O)NCc2ncc(Cl)cc2Cl)c(Cl)n1 ?
Outgoing: 100%

Incoming: So what does the record say about Test G disease control rating for CC(NC(=O)c1c(Br)ccnc1Cl)c1ncc(Br)cc1Cl (stereo not shown) ?
Outgoing: 100%

Incoming: So what does the record say about Test G disease control rating for CC(NC(=O)c1c(Cl)ccnc1Cl)c1ncc(F)cc1Cl (stereo not shown) ?
Outgoing: 99%

Incoming: So what does the record say about Test G disease control rating for Cc1cc(Cl)c(C(=O)NC(C)c2ncc(Br)cc2Br)c(Cl)n1 (stereo not shown) ?
Outgoing: 99%

Incoming: So what does the record say about Test G disease control rating for CC(NC(=O)c1c(I)ccnc1F)c1ncc(Br)cc1Br (stereo not shown) ?
Outgoing: 100%

Incoming: So what does the record say about Test G disease control rating for CC(NC(=O)c1c(Br)ccnc1F)c1ncc(Br)cc1Br (stereo not shown) ?
Outgoing: 100%

Incoming: So what does the record say about Test G disease control rating for Cc1cc(Cl)c(C(=O)NC(C)c2ncc(Cl)cc2Br)c(Cl)n1 (stereo not shown) ?
Outgoing: 100%

Incoming: So what does the record say about Test G disease control rating for O=C(NCc1ncc(Cl)cc1I)c1c(Cl)ccnc1Cl ?
Outgoing: 36%

Incoming: So what does the record say about Test G disease control rating for O=C(NCc1ncc(Cl)cc1Cl)c1c(Cl)ccnc1Cl ?
Outgoing: 100%

Incoming: So what does the record say about Test G disease control rating for CC(NC(=O)c1c(I)ccnc1Cl)c1ncc(Br)cc1Cl (stereo not shown) ?
Outgoing: 72%

----------
system: Phytophthora infestans; format: in vivo; settings: tomato (or potato) seedlings, sprayed day before inoculation; rate not given
Catalogue of Test D disease control rating readings, one per entry.
Write the value in % as a bare number.

Known results for molecules:
Cc1cc(Cl)c(C(=O)NC(C)c2ncc(I)cc2Cl)c(Cl)n1 (centres unmarked) [Compound 15]: 100
O=C(NCc1ncc(Cl)cc1Br)c1c(Cl)ccnc1Cl [Compound 6]: 100
O=C(NCc1ncc(Cl)cc1Cl)c1c(Cl)ccnc1Cl [Compound 4]: 100
Cc1ccnc(Br)c1C(=O)NC(C)c1ncc(Br)cc1Cl (centres unmarked) [Compound 29]: 99

Continue with the next molecule.
Incoming: So what does the record say about Test D disease control rating for CC(NC(=O)c1c(I)ccnc1Cl)c1ncc(Br)cc1Cl (centres unmarked) [Compound 25] ?
Outgoing: 100

meta.source: patent US20050020643A1
